B1: F1*; the commonest letter at each place (parent)
chain: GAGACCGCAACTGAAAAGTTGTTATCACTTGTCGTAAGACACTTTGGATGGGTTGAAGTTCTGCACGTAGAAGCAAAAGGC

- Variants of: B1
- assay_remarks: fraction ligated after 30 min (ligated reads / total reads); higher = more ligase activity
- measurement_conditions: with F1*sub RNA substrate (template-directed ligation), 42 °C
Please provide measured fraction ligated for the entries that follow.
One number for each entry.

Please review the entries below; each comes with its answer.
// query # query: fraction ligated of entry G31C G50T
// result 0.108

// query # query: fraction ligated of entry C28G G38C
// result 0.778

Below are 7 variants. Give each one its fraction ligated.
1. C33A G46C
2. T35C G55C
3. C26T G46C
4. T23C A37T
5. G31C G34T
6. G31T C42T
7. T30C G55A

// result
1. 0.797
2. 0.796
3. 0.81
4. 0.796
5. 0.778
6. 0.822
7. 0.81

Below are 6 variants. Give each one its fraction ligated.
1. G34C C42T
2. A37T A48C
3. A37C A41C
4. C33A G47T
5. T23G G34T
6. C28A C42T

// result
1. 0.849
2. 0.763
3. 0.759
4. 0.219
5. 0.794
6. 0.823

Below are 6 variants. Give each one its fraction ligated.
1. A24T T45A
2. A39G T45A
3. G34T C40T
4. G31A G46C
5. C42T A48T
6. A24C T45G

// result
1: 0.0698; 2: 0.784; 3: 0.809; 4: 0.524; 5: 0.796; 6: 0.0118
